targetDesc: PDGF-BB (platelet-derived growth factor BB) (Homo sapiens)
experimentNotes: filter
assayContext: Bn-dU; Trp-dU8; Heg5; 2'-OMe A3, A11, A21, G24
quantityMeasured: Kd

Can you look up the measured Kd of TTACGTTACACGCGTTTATAGCG [4149-8_178] for me?
> 10 nM

###

targetDesc: PDGF-BB (platelet-derived growth factor BB) (Homo sapiens) (UniProt P01127)
Sequence (P01127 82-190): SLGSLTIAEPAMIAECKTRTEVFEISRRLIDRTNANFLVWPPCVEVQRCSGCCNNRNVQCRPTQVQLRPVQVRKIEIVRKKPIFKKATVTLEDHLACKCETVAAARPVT
experimentNotes: filter
assayContext: 2'-OMe G14; NapdU at 9,11,13,19,21; 2'-OMe substitution
quantityMeasured: Kd (pM)
Give the number; pM is assumed, so skip it.

State its Kd on PDGF-BB (platelet-derived growth factor BB) (Homo sapiens) (UniProt P01127): CGACAGCATGTATGCACATCT [5169-4_42]
6.9
